Assayed target: polymerization-deficient p62 PB1 domain D69A/D73A (human) (UniProt Q13501)
Assay: ITC
Quantity measured: Kd (nM)
Numbers only, in nM.

Challenge: Consider the binder MEKK3 PB1 domain, residues 43-127 (ITC) (domain or fragment) SDVRIKFEHNGERRIIAFSRPVKYEDVEHKVTTVFGQPLDLHYMNNELSILLKNQDDLDKAIDILDRSSSMKSLRILLLSQDRNH . State its measured Kd.
Response given: 26.8
